system-tested: Tyrosine-protein kinase Lyn (Homo sapiens) (UniProt P07948)
Sequence (P07948 2-512 limits assumed): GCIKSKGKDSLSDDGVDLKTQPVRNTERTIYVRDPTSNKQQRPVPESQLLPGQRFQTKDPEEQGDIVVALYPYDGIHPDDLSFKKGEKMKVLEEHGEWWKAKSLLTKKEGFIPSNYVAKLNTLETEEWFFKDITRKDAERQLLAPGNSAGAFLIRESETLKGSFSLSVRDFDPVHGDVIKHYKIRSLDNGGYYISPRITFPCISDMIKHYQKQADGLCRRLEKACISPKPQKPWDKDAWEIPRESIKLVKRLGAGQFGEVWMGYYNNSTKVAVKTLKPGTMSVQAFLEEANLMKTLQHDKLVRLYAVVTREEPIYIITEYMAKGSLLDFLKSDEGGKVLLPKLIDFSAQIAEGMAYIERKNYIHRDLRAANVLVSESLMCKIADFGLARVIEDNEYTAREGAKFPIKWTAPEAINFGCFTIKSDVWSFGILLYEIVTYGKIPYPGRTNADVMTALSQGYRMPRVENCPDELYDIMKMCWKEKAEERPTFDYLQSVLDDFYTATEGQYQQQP
test-details: Inhibition of recombinant human full-length N-terminal His-tagged LYN-B expressed in baculovirus expression system at 500 nM by Z-LYTE assay relative to control
quantity-kind: inhibition (%)

[[record]]
chemical_string = "OCc1ccc(-c2cc3c(N[C@H](CO)c4ccccc4)ncnc3[nH]2)cc1"
measured_number = 70


[a] CCC(=O)Nc1ccc(-c2c[nH]c3ncnc(N[C@H](C)c4ccccc4)c23)cc1
[b] CN(C)CCn1cc(-c2cccc(O)c2)c2c(N)ncnc21
Req: Consider a and b . Which of these has its inhibition at a higher number? Response format: the label of the selected entry.
Resp: b

---

system-tested: Receptor-type tyrosine-protein kinase FLT3 (Homo sapiens)
test-details: Inhibition of recombinant human His-tagged FLT3 cytoplasmic domain (564 to 958 residues) expressed in baculovirus expression system at 500 nM by Z-LYTE assay relative to control
quantity-kind: inhibition (%)

[P] CCC(=O)Nc1ccc(-c2c[nH]c3ncnc(N[C@H](C)c4ccccc4)c23)cc1
[Q] OC[C@@H](Nc1ncnc2sc(-c3ccc(O)cc3)cc12)c1ccccc1
Req: Hi, I'm comparing two records. Which one has the lower inhibition, P or Q ? Your answer should be the label attached to the chosen record.
Resp: Q
(Q: 16%, P: 42%)

---

system-tested: Mast/stem cell growth factor receptor Kit (Homo sapiens) (UniProt P10721)
Sequence (P10721 whole entry, the tested form may be a part): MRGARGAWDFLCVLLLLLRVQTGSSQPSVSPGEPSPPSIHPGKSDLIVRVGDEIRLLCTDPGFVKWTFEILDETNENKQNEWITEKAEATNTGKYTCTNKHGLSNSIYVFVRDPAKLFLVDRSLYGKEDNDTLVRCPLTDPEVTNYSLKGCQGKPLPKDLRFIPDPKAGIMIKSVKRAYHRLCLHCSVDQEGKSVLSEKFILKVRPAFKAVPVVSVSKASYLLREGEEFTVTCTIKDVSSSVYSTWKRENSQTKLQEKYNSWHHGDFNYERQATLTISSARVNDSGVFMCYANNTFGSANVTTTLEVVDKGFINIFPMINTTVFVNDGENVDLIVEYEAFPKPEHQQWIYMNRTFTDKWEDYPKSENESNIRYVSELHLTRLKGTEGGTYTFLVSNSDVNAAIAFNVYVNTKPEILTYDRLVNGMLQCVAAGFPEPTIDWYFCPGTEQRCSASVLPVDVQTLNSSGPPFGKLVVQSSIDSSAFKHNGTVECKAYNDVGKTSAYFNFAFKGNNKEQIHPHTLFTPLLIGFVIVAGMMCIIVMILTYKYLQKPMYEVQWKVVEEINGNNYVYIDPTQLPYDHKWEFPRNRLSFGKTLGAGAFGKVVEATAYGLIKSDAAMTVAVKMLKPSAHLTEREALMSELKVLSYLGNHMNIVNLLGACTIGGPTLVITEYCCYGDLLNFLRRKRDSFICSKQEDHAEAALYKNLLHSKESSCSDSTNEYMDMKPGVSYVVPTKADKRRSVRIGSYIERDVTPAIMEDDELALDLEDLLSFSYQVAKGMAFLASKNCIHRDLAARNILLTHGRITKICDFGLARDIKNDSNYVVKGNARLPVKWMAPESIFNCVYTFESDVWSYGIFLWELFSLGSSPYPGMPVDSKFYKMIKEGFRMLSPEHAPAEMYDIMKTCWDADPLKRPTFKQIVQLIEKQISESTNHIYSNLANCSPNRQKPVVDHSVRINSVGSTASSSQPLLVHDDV
test-details: Inhibition of recombinant human His-tagged KIT cytoplasmic domain (544 to 976 residues) expressed in baculovirus expression system at 500 nM by Z-LYTE assay relative to control
quantity-kind: inhibition (%)

See these solved cases before continuing.
[[record]]
chemical_string = "OC[C@@H](Nc1ncnc2sc(-c3ccc(O)cc3)cc12)c1ccccc1"
quantity_kind = "inhibition"
unit_string = "%"
measured_number = 15

[[record]]
chemical_string = "CCC(=O)Nc1ccc(-c2c[nH]c3ncnc(N[C@H](C)c4ccccc4)c23)cc1"
quantity_kind = "inhibition"
unit_string = "%"
measured_number = -3


[a] OCc1ccc(-c2cc3c(N[C@H](CO)c4ccccc4)ncnc3[nH]2)cc1
[b] CN(C)CCn1cc(-c2cccc(O)c2)c2c(N)ncnc21
Req: Of the two listed items, a and b , which carries the larger inhibition figure? API: response body contains the label of the selected item.
Resp: a

---

system-tested: Rho-associated protein kinase 1 (Homo sapiens)
test-details: Inhibition of recombinant human GST-tagged ROCK1 cytoplasmic domain expressed in baculovirus expression system at 500 nM by Z-LYTE assay relative to control
quantity-kind: inhibition (%)

[P] OC[C@@H](Nc1ncnc2sc(-c3ccc(O)cc3)cc12)c1ccccc1
[Q] OCc1ccc(-c2cc3c(N[C@H](CO)c4ccccc4)ncnc3[nH]2)cc1
[R] CN(C)CCn1cc(-c2cccc(O)c2)c2c(N)ncnc21
Req: Number of compounds to sort: 3. Sort criterion: inhibition, ascending. # the answer lists labels in the order requested
Resp: Q, P, R
(Q: -1%, P: 4%, R: 17%)

---

system-tested: Serine/threonine-protein kinase pim-1 (Homo sapiens) (UniProt P11309)
Sequence (P11309 whole entry, looked up): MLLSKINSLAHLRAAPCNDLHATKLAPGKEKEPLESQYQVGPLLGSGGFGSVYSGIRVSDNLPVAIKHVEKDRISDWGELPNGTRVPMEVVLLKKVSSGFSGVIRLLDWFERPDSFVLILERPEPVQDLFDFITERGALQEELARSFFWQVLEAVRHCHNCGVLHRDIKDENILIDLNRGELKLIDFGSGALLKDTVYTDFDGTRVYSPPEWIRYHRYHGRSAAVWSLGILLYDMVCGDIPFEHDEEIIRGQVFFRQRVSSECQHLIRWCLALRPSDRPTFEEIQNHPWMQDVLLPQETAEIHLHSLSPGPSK
test-details: Inhibition of recombinant full length human His-tagged PIM1 expressed in baculovirus expression system at 500 nM by Z-LYTE assay relative to control
quantity-kind: inhibition (%)

[[record]]
chemical_string = "CN(C)CCn1cc(-c2cccc(O)c2)c2c(N)ncnc21"
measured_number = 9


[A] OCc1ccc(-c2cc3c(N[C@H](CO)c4ccccc4)ncnc3[nH]2)cc1
[B] CCC(=O)Nc1ccc(-c2c[nH]c3ncnc(N[C@H](C)c4ccccc4)c23)cc1
[C] OC[C@@H](Nc1ncnc2sc(-c3ccc(O)cc3)cc12)c1ccccc1
Req: I would appreciate it if you could sort these 3 molecules by inhibition, starting from the smallest number. List the labels according to the requested ordering.
Resp: B, A, C

---

system-tested: Dual specificity mitogen-activated protein kinase kinase 6 (Homo sapiens) (UniProt P52564)
Sequence (P52564 whole entry): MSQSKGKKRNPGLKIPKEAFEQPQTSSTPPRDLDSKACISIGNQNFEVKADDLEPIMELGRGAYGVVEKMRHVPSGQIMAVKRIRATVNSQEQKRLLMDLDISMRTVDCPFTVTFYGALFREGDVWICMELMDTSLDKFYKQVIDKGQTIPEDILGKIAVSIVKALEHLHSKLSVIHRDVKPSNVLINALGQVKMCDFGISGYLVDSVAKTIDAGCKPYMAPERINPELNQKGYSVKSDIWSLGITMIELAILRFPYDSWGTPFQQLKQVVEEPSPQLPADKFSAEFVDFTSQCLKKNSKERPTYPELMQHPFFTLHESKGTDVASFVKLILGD
test-details: Inhibition of recombinant human full length His-tagged MKK6 expressed in baculovirus expression system at 500 nM by Z-LYTE assay relative to control
quantity-kind: inhibition (%)

[I] CCC(=O)Nc1ccc(-c2c[nH]c3ncnc(N[C@H](C)c4ccccc4)c23)cc1
[II] OCc1ccc(-c2cc3c(N[C@H](CO)c4ccccc4)ncnc3[nH]2)cc1
[III] CN(C)CCn1cc(-c2cccc(O)c2)c2c(N)ncnc21
Req: Given 3 compounds, produce a descending ranking by inhibition. Answer with the labels in sequence, matching the requested order.
Resp: I, III, II
(I: 8%, III: 5%, II: 3%)

---

system-tested: Macrophage colony-stimulating factor 1 receptor (Homo sapiens)
test-details: Inhibition of recombinant human His-tagged CSF1R (538 to 910 residues) expressed in baculovirus expression system at 500 nM by Z-LYTE assay relative to control
quantity-kind: inhibition (%)

Worked examples, 2 molecules total:
[[record]]
chemical_string = "OCc1ccc(-c2cc3c(N[C@H](CO)c4ccccc4)ncnc3[nH]2)cc1"
quantity_kind = "inhibition"
unit_string = "%"
measured_number = 96

[[record]]
chemical_string = "CN(C)CCn1cc(-c2cccc(O)c2)c2c(N)ncnc21"
quantity_kind = "inhibition"
unit_string = "%"
measured_number = 39


[I] OC[C@@H](Nc1ncnc2sc(-c3ccc(O)cc3)cc12)c1ccccc1
[II] CCC(=O)Nc1ccc(-c2c[nH]c3ncnc(N[C@H](C)c4ccccc4)c23)cc1
Req: Higher inhibition: I or II ? // respond with label for picked entry
Resp: I
(I: 31%, II: 21%)

---

system-tested: Mitogen-activated protein kinase 14 (Homo sapiens)
test-details: Inhibition of recombinant human full length His-tagged p38-alpha expressed in baculovirus expression system at 500 nM by Z-LYTE assay relative to control
quantity-kind: inhibition (%)

[[record]]
chemical_string = "CN(C)CCn1cc(-c2cccc(O)c2)c2c(N)ncnc21"
measured_number = 8


[P] CCC(=O)Nc1ccc(-c2c[nH]c3ncnc(N[C@H](C)c4ccccc4)c23)cc1
[Q] OC[C@@H](Nc1ncnc2sc(-c3ccc(O)cc3)cc12)c1ccccc1
[R] OCc1ccc(-c2cc3c(N[C@H](CO)c4ccccc4)ncnc3[nH]2)cc1
Req: Rank descending by inhibition. Record the ranking as a list of labels in the requested order.
Resp: R, Q, P
(R: 17%, Q: 8%, P: 3%)

---

system-tested: Mitogen-activated protein kinase 3 (Homo sapiens)
test-details: Inhibition of recombinant human full length GST-tagged ERK1 expressed in Escherichia coli at 500 nM by Z-LYTE assay relative to control
quantity-kind: inhibition (%)

Illustrative cases are given below, each with its answer.
[[record]]
chemical_string = "OC[C@@H](Nc1ncnc2sc(-c3ccc(O)cc3)cc12)c1ccccc1"
quantity_kind = "inhibition"
measured_number = 6

[[record]]
chemical_string = "CCC(=O)Nc1ccc(-c2c[nH]c3ncnc(N[C@H](C)c4ccccc4)c23)cc1"
quantity_kind = "inhibition"
measured_number = 0


[P] OCc1ccc(-c2cc3c(N[C@H](CO)c4ccccc4)ncnc3[nH]2)cc1
[Q] CN(C)CCn1cc(-c2cccc(O)c2)c2c(N)ncnc21
Req: // returns P or Q , whichever has the lower inhibition State the label of the item chosen.
Resp: Q

---

system-tested: Mitogen-activated protein kinase 1 (Homo sapiens) (UniProt P28482)
Sequence (P28482 whole entry): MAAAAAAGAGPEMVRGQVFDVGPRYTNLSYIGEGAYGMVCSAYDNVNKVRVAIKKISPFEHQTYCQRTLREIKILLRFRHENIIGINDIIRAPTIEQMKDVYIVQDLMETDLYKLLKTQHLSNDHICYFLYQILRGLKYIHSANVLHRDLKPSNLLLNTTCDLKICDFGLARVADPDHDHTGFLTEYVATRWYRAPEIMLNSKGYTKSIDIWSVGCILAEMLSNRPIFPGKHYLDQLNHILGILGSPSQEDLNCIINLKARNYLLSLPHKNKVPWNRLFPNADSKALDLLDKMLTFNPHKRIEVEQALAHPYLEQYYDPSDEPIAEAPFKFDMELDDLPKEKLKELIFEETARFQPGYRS
test-details: Inhibition of recombinant human full length GST-tagged ERK2 expressed in Escherichia coli at 500 nM by Z-LYTE assay relative to control
quantity-kind: inhibition (%)

[I] CN(C)CCn1cc(-c2cccc(O)c2)c2c(N)ncnc21
[II] OCc1ccc(-c2cc3c(N[C@H](CO)c4ccccc4)ncnc3[nH]2)cc1
Req: Would you let me know which has the greater inhibition value, I or II ? Give the label under which the chosen entry appears.
Resp: II
(II: 9%, I: 6%)

---

system-tested: Dual specificity mitogen-activated protein kinase kinase 1 (Homo sapiens) (UniProt Q02750)
Sequence (Q02750 whole entry): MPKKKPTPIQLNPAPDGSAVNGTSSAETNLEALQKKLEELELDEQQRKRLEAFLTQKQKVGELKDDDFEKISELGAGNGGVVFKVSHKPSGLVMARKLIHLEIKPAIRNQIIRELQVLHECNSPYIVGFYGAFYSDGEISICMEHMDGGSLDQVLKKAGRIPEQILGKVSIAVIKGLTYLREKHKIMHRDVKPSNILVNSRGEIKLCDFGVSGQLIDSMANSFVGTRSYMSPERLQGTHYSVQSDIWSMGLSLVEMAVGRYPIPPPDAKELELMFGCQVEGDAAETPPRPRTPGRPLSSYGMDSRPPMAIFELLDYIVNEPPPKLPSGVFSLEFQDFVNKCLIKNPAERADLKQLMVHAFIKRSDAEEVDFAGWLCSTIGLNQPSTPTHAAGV
test-details: Inhibition of recombinant human full length His-tagged MEK1 expressed in baculovirus expression system at 500 nM by Z-LYTE assay relative to control
quantity-kind: inhibition (%)

[a] CCC(=O)Nc1ccc(-c2c[nH]c3ncnc(N[C@H](C)c4ccccc4)c23)cc1
[b] OCc1ccc(-c2cc3c(N[C@H](CO)c4ccccc4)ncnc3[nH]2)cc1
Req: From the items above, decide which of a and b has the lower inhibition reading. Reply with the label of the item you choose.
Resp: b

[I] OC[C@@H](Nc1ncnc2sc(-c3ccc(O)cc3)cc12)c1ccccc1
[II] CN(C)CCn1cc(-c2cccc(O)c2)c2c(N)ncnc21
Req: Which shows the larger inhibition value: I or II ? Reply briefly: the label of your chosen item.
Resp: I

---

system-tested: Mitogen-activated protein kinase 12 (Homo sapiens) (UniProt P53778)
Sequence (P53778 whole entry): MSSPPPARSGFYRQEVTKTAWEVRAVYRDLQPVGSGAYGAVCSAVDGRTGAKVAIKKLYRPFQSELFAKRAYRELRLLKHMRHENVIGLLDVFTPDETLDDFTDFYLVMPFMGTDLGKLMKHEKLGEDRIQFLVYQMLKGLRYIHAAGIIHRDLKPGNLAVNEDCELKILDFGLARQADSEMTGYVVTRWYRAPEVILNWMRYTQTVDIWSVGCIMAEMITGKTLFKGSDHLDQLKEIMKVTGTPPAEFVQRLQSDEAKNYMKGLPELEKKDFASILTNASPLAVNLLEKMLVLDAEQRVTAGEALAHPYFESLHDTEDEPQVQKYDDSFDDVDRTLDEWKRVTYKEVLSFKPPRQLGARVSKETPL
test-details: Inhibition of recombinant human full length His-tagged p38-gamma expressed in baculovirus expression system at 500 nM by Z-LYTE assay relative to control
quantity-kind: inhibition (%)

[[record]]
chemical_string = "CN(C)CCn1cc(-c2cccc(O)c2)c2c(N)ncnc21"
quantity_kind = "inhibition"
measured_number = 10

[[record]]
chemical_string = "OCc1ccc(-c2cc3c(N[C@H](CO)c4ccccc4)ncnc3[nH]2)cc1"
quantity_kind = "inhibition"
measured_number = 12


[A] CCC(=O)Nc1ccc(-c2c[nH]c3ncnc(N[C@H](C)c4ccccc4)c23)cc1
[B] OC[C@@H](Nc1ncnc2sc(-c3ccc(O)cc3)cc12)c1ccccc1
Req: Returns the identifier with the smallest measured inhibition among A and B . Selection: enter the item's label.
Resp: B
(B: 0%, A: 10%)
